biological target: 5-HT2A (h) (Homo sapiens, UniProt P28223)
Sequence (P28223 whole entry): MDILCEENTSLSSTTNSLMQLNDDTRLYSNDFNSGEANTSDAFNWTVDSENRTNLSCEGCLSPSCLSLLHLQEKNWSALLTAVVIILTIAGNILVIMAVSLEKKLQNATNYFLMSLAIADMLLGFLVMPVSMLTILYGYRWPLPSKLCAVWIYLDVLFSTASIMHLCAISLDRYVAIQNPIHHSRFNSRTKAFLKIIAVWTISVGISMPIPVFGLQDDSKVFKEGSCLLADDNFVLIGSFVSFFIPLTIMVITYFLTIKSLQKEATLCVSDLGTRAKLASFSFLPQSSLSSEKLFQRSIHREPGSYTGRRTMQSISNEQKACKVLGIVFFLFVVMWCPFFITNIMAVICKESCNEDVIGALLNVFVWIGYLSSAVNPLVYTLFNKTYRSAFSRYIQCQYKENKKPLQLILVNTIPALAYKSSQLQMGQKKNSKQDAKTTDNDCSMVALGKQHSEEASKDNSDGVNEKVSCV
Attribute measured: Ki
Record the result as number plus unit.

Please state recorded Ki (tested on 5-HT2A (h) (Homo sapiens, UniProt P28223)) of CNCC(C)CN1c2ccccc2Sc2ccc(C#N)cc21 (stereo not shown) 1.5 nM

###

target: 5-HT2c (h) (Homo sapiens, UniProt P28335)
Sequence (P28335 33-458): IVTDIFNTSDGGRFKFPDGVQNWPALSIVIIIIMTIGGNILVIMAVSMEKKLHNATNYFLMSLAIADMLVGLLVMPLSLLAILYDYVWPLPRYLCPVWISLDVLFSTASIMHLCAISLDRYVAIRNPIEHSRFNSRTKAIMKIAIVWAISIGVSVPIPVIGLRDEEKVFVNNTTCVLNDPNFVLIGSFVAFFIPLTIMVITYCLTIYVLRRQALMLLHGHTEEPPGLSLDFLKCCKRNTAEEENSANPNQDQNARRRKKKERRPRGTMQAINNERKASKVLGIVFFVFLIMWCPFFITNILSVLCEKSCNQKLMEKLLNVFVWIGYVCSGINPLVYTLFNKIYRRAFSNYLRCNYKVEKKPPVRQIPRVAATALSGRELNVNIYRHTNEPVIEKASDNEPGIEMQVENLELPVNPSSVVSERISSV
Attribute measured: Ki (nM)
Form entry: value (nM) — number only.

Find Ki (5-HT2c (h) (Homo sapiens, UniProt P28335)) for the entry CNCC(C)CN1c2ccccc2Sc2ccc(C#N)cc21 (stereo not shown) 8.5

###

molecular target: M3 (h) (Homo sapiens)
Sequence (P20309 whole entry): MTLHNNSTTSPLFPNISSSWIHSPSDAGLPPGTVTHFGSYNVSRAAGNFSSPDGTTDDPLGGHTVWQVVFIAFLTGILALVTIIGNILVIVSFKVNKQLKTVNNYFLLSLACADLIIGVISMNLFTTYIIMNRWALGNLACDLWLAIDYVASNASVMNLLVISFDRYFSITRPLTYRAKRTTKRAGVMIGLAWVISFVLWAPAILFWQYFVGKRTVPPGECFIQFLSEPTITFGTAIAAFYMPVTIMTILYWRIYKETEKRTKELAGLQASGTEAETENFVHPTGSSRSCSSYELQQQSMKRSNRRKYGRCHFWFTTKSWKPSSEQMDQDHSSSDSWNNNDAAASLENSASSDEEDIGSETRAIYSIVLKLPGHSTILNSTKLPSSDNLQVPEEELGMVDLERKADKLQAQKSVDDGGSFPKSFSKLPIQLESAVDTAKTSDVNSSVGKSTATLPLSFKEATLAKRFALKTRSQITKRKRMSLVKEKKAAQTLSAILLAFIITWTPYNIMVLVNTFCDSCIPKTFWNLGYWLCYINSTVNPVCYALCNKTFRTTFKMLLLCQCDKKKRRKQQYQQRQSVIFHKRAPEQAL
Attribute measured: pKi
pKi is a log-scale quantity: -log10 of the concentration expressed in molar.

Which pKi value belongs to CNCC(C)CN1c2ccccc2Sc2ccc(C#N)cc21 (stereo not shown) ? 5.41

###

molecular target: 5-HT2A (h) (Homo sapiens)
Attribute measured: IC50 (nM)
Please state the figure in nM; there is no need to write the unit.

Provide value of IC50 for this record tested with 5-HT2A (h) (Homo sapiens): CNCC(C)CN1c2ccccc2Sc2ccc(C#N)cc21 (stereo not shown) 9
